System: B6C3F1 mice, B16 melanoma ip, median survival T/C
method_notes: NCI In Vivo Anticancer Drug Screen. Data for tumor model B16 Melanoma (intraperitoneal) in B6C3F1 mice
run_parameters: endpoint: median survival time; dose: 3.12 mg/kg/injection; schedule: Q01DX009 (ip); vehicle: saline
Toxic doses and inconclusive results are not listed. How the source made its calls: active means survival T/C of 150% or more; inactive means T/C below 125% in these data.
Outcomes you can answer with include only these: active, inactive

Task: Give the logged outcome of this assay for the following molecule: Cc1cc(N(CC(C)Br)CC(C)Br)ccc1N=Nc1ccccc1C(=O)O (stereo not drawn)
Output: inactive

Task: Give the logged outcome of this assay for the following molecule: `N=C(N)CCCCCCCCC(=N)N`
Output: inactive

Task: Give the logged outcome of this assay for the following molecule: `CC(=O)Nc1ccc(N=Nc2c(C)nn(C(=N)N)c2C)cc1`
Output: inactive

Task: Give the logged outcome of this assay for the following molecule: `CCCNC1=C(C)C(=O)C2=C(C1=O)[C@H](COC(N)=O)[C@]1(OC)[C@@H]3N[C@@H]3CN21`
Output: active

Task: Give the logged outcome of this assay for the following molecule: O=C(O)C1CSCN1 (stereo not drawn)
Output: inactive

Task: Give the logged outcome of this assay for the following molecule: `Brc1c(NC2=NCCN2)ccc2nccnc12`
Output: inactive

Task: Give the logged outcome of this assay for the following molecule: `CCc1nc(N)nc(N)c1-c1ccc(Cl)c(Cl)c1.[Cl][Pd][Cl]`
Output: inactive

Task: Give the logged outcome of this assay for the following molecule: CCC(C)n1ncc2c(N(C)C)ncnc21 (stereo not drawn)
Output: inactive

###

Would you kindly list T/C for each of these compounds?
Tested on: B6C3F1 mice, B16 melanoma ip, median survival T/C
method_notes: NCI In Vivo Anticancer Drug Screen. Data for tumor model B16 Melanoma (intraperitoneal) in B6C3F1 mice
run_parameters: endpoint: median survival time; dose: 12.5 mg/kg/injection; schedule: Q01DX009 (ip); vehicle: Klucel (hydroxypropylcellulose) (HPC); higher = longer survival
Inconclusive results and toxic doses are left out.

Task: Fill in the blank: the reported T/C of `Nc1ccc(C(=O)O)c(O)c1` is ____.
Output: 101 % of control

Task: Fill in the blank: the reported T/C of `N/C(=N\OC(=O)Nc1ccc(CSc2ccc(Cl)cc2)o1)c1ccccn1` is ____.
Output: 97 % of control

Task: Fill in the blank: the reported T/C of `S=c1nc[nH]c2nc[nH]c12` is ____.
Output: 94 % of control

Task: Fill in the blank: the reported T/C of C=C1CCC2C(c3c(C)c(O)c4c(c31)C(=O)C(C)C4)C2(C)C (stereo not drawn) is ____.
Output: 95 % of control

Task: Fill in the blank: the reported T/C of CC(=O)NC(CCc1ccc(Cl)c(Cl)c1)c1cccc(O)c(=O)c1 (stereo not drawn) is ____.
Output: 101 % of control

Task: Fill in the blank: the reported T/C of CC(C)(C)OC(=O)NC(CCCCNC(=O)C(F)(F)F)C(=O)O (stereo not drawn) is ____.
Output: 99 % of control

Task: Fill in the blank: the reported T/C of `CC1(C)N=C(N)N=C(N)N1c1cccc(CCCCc2cccc(N)c2)c1` is ____.
Output: 108 % of control

Task: Fill in the blank: the reported T/C of CC(=O)OCC1OC(OC2=C(CC=C(C)C)C(=O)c3ccccc3C2=O)C(OC(C)=O)C(OC(C)=O)C1OC(C)=O (stereo not drawn) is ____.
Output: 98 % of control

Task: Fill in the blank: the reported T/C of `C[C@H]1CCC/C=C/[C@@H]2C[C@H](O)C[C@H]2[C@H](O)/C=C/C(=O)O1` is ____.
Output: 89 % of control

Task: Fill in the blank: the reported T/C of `O=c1s[se]c2ccccc12` is ____.
Output: 98 % of control

Task: Fill in the blank: the reported T/C of `CCOC(=O)CNC(=O)Sc1ccc(C(C)(C)C)cc1` is ____.
Output: 100 % of control

Task: Fill in the blank: the reported T/C of O=c1ccn(C2OC(CO)C(O)C2O)c(=O)[nH]1 (stereo not drawn) is ____.
Output: 97 % of control

Task: Fill in the blank: the reported T/C of `Cc1nn(CCO)c(C)c1N=[N+]([O-])c1c(C)nn(CCO)c1C` is ____.
Output: 111 % of control
